- Test system: ERBB3
- assay-context: concentration: 1 μM, replicates: in singlicate; n = 1;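 also: KINOMEscan kinase panel screen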
Items are presented alongside their recorded %Inh.
The response must be a number in % with no trailing unit.

A selection of reference data follows.
| compound | measure-unit | %Inh |
| --- | --- | --- |
| Fc1ccc(-c2ncn(CCCN3CCOCC3)c2-c2cccnc2)cc1 [SB-211743] | % | 0 |
| O=C(Nc1cccc(-c2nn3ncccc3c2-c2ccnc(Nc3cccc(C(F)(F)F)c3)n2)c1)c1c(F)cccc1F [GSK299495] | % | 56 |
| Fc1ccc(-c2nn3c(OCC(F)(F)F)cccc3c2-c2ccncc2)cc1 [GW514784] | % | 29 |

Prompt: %Inh of O=C(NCCNc1ccnc(Nc2ccc(F)cc2)n1)c1cc2ccccc2s1 [GSK1379874] on ERBB3?
Response: 0

* * *

Items are presented alongside their recorded %Inh.
- Tested on: YES
- Construct: gene YES1
- assay-context: concentration: 1 μM, replicates: in singlicate; n = 1
The response must be a number in % with no trailing unit.

Prompt: %Inh of O=c1cc(N2CCOCC2)nc2n(Cc3cccc(Cl)c3Cl)c(C3CC3)nn12 on YES?
Response: 9

* * *

Items are presented alongside their recorded %Inh.
- Test system: EPHA2
- assay-context: concentration: 1 μM, replicates: in singlicate; n = 1
The response must be a number in % with no trailing unit.

A selection of reference data follows.
| compound | tested-on | %Inh, % |
| --- | --- | --- |
| Cc1c(Cn2c(C)nn3c(=O)cc(N4CCOC(C)C4)nc23)cccc1C(F)(F)F (centres unmarked) [GSK2344444] | EPHA2 | 5 |
| C[C@@H](Oc1cc(-n2cnc3ccc(NC(=O)NC(C)(C)C)cc32)sc1C(N)=O)c1ccccc1Cl [GSK346294] | EPHA2 | 0 |
| O=C1Cc2cc(Nc3nc(NCc4cccc(S(=O)(=O)C(F)(F)F)c4)ncc3C(F)(F)F)ccc2N1 | EPHA2 | 3 |
| COc1cc(Nc2nccc(N3CCC(NC(=O)c4cccc(NC(C)=O)c4)C3)n2)cc(OC)c1OC (centres unmarked) [GSK1379754] | EPHA2 | 0 |
| N#Cc1c(N2CCOCC2)sc(-c2ccn[nH]2)c1-c1ccc(Cl)cc1 | EPHA2 | 0 |
| COc1cc2c(cc1OCCN1CCN(C)CC1)ncc1c3ccc(C#N)cc3[nH]c21 | EPHA2 | 0 |

Prompt: May I ask what %Inh has been recorded for COc1cc2c(cc1OC[C@@H](O)CO)ncc1c3ccc(C#N)cc3[nH]c21 ?
Response: 0

Prompt: May I ask what %Inh has been recorded for CN1c2ccc(CNc3ccc(F)cc3)cc2-c2c(cnn2C)S1(=O)=O ?
Response: 9

Prompt: May I ask what %Inh has been recorded for O=c1cc(N2CCOCC2)nc2n(Cc3cccc4ccccc34)ccn12 [GSK2333389] ?
Response: 0

Prompt: May I ask what %Inh has been recorded for COc1ccc(S(=O)(=O)NC2CCN(c3cc(C)nc(Nc4cccc(C#N)c4)n3)CC2)cc1.O=C(O)C(F)(F)F [GSK1653539] ?
Response: 0

* * *

- Tested on: NEK11
- assay-context: concentration: 1 μM, replicates: in singlicate; n = 1
Items are presented alongside their recorded %Inh.
The response must be a number in % with no trailing unit.

| molecule | measure-unit | %Inh |
| --- | --- | --- |
| CCn1cnc2c(N)ncnc21 | % | 0 |

Prompt: May I ask what %Inh has been recorded for CCc1nc(-c2cccc(C)c2)c(-c2ccnc(NCc3ccccc3)c2)s1 ?
Response: 0

Prompt: May I ask what %Inh has been recorded for Nc1nc(-c2ccc3c(N)n[nH]c3c2)cc(N2CCCC2)n1 ?
Response: 0

Prompt: May I ask what %Inh has been recorded for CC(C)(CN)c1nc(-c2ccc(Cl)c(O)c2)c(-c2ccncc2)[nH]1.O=C(O)C(F)(F)F ?
Response: 0

Prompt: May I ask what %Inh has been recorded for NS(=O)(=O)c1cccc(-c2ccc3nccc(-c4cccc(S(N)(=O)=O)c4)c3c2)c1 ?
Response: 8

Prompt: May I ask what %Inh has been recorded for COc1ccc(Nc2nccc(N3CCC(NC(=O)Nc4cc(C)ccc4C)C3)n2)cc1 (stereo not drawn) ?
Response: 20
